Measured values drawn from patent US20240294914A1 for this set.

Parameter Editing Efficiency 1 (%): see the listing below.
test system: HBV genome in HEK293T cells transduced with a lentiviral vector; assay: Base editing efficiency in Hek293-lentiHBV system (PCR amplicons sequenced on MiSeq); assay type: cell-based, Hepatitis B virus; details: replicate 1, base editor Cas12b-ABE, plasmid transfection, four days
Strand notation (5' to 3'): a small letter for the sugar, then the base; units joined by * are phosphorothioate-linked, units joined directly phosphodiester-linked; [ ] holds rarer units or linkages, { } end groups; capitals alone tell only the bases. m = 2'-O-methyl; r = 2'-OH (RNA)
Write down the numeric answer in % and omit the unit.

1) cas12b-4: guide RNA SEQ ID NO: 379 (nucleic acid) guide: mG*mU*mU*rCrUrGrUrCrUrUrUrUrGrGrUrCrArGrGrArCrArArCrCrGrUrCrUrArGrCrUrArUrArArGrUrGrCrUrGrCrArGrGrGrUrGrUrGrArGrArArArCrUrCrCrUrArUrUrGrCrUrGrGrArCrGrArUrGrUrCrUrCrUrUrArCrGrArGrGrCrArUrUrArGrCrArCrArCrArArGrArArUrCrCrUrCrArCrArArUrArCrC    14.70
2) cas12b-42: guide RNA SEQ ID NO: 384 (nucleic acid) guide: mG*mU*mU*rCrUrGrUrCrUrUrUrUrGrGrUrCrArGrGrArCrArArCrCrGrUrCrUrArGrCrUrArUrArArGrUrGrCrUrGrCrArGrGrGrUrGrUrGrArGrArArArCrUrCrCrUrArUrUrGrCrUrGrGrArCrGrArUrGrUrCrUrCrUrUrArCrGrArGrGrCrArUrUrArGrCrArCrGrGrArGrCrUrArCrUrGrUrGrGrArGrUrUrArCrU    29.48

Task: Form field: reported Editing Efficiency 1 (%) of cas12b-17: guide RNA SEQ ID NO: 382 (nucleic acid) guide: mG*mU*mU*rCrUrGrUrCrUrUrUrUrGrGrUrCrArGrGrArCrArArCrCrGrUrCrUrArGrCrUrArUrArArGrUrGrCrUrGrCrArGrGrGrUrGrUrGrArGrArArArCrUrCrCrUrArUrUrGrCrUrGrGrArCrGrArUrGrUrCrUrCrUrUrArCrGrArGrGrCrArUrUrArGrCrArCrGrGrGrGrCrCrArArGrUrCrUrGrUrArCrArGrCrA
Result: 26.42
